- TARGET: BRG-1 (Homo sapiens, UniProt P51532)
- Sequence (P51532 whole entry): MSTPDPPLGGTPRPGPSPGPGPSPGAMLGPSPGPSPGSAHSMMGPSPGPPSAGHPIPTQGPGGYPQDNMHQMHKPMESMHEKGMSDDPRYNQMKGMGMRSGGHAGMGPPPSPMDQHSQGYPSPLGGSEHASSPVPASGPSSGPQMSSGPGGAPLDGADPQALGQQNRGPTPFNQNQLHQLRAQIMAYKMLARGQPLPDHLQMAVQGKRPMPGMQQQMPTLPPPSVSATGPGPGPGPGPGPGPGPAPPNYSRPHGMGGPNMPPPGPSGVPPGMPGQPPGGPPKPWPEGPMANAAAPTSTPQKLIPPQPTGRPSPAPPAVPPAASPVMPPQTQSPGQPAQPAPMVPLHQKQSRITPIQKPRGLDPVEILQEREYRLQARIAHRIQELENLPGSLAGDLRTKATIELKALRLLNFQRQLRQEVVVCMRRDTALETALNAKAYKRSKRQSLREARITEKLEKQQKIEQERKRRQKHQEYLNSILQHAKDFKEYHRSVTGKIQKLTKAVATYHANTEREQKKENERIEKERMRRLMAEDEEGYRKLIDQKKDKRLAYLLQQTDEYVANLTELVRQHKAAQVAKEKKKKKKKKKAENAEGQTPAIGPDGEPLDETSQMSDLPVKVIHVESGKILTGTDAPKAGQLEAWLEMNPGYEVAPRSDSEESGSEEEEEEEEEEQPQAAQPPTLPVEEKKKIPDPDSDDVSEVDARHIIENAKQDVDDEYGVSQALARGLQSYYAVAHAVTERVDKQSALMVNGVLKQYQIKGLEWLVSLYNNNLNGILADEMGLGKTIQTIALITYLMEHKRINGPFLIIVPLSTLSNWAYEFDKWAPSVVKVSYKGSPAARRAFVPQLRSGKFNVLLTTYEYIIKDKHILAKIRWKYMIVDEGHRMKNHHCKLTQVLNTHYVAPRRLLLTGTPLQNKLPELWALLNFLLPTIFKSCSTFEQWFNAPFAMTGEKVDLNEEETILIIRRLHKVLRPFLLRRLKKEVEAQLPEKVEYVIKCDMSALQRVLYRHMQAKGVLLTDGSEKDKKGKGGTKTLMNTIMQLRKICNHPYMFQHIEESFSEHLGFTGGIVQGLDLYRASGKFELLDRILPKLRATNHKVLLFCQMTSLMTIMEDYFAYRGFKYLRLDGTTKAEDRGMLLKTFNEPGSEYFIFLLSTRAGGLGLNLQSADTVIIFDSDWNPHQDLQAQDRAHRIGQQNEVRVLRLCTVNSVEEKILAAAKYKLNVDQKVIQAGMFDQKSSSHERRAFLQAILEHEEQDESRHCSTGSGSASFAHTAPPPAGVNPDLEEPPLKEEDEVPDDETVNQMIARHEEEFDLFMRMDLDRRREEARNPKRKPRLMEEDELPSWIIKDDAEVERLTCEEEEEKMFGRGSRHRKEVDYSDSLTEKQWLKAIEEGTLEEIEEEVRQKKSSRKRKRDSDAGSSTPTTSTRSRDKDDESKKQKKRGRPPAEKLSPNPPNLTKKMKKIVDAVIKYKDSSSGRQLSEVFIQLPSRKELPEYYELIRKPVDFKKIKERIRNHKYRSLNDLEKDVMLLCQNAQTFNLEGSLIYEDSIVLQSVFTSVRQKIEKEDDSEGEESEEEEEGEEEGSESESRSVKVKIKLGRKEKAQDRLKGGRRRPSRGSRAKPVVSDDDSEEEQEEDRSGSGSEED
- ASSAY_DETAILS: ATPase catalytic activity assay (ADP-Glo), BRG-1
pIC50: −log10 of the molar value.
// values below are reported pIC50

Request: Record C[C@@]1(C#N)COCc2ccc(C(=O)NCc3cc4nc(-c5cccc(C6(C(F)F)COC6)c5)ccc4cn3)cc21 : what is its pIC50 with BRG-1 (Homo sapiens, UniProt P51532)?
Result: 6.00 to 6.30

More entries:
Request: Record C[C@@]1(C#N)COCc2ncc(C(=O)NCc3cc4cc(-c5cncc(C6CC6)n5)ccc4cn3)cc21 : what is its pIC50 with BRG-1 (Homo sapiens, UniProt P51532)?
Result: 6.30 to 7.00

Request: Record CC(=O)N1CCOc2ccc(-c3ccc4cnc(CNC(=O)c5ccc6c(c5)[C@](C)(C#N)COC6)cc4n3)cc21 : what is its pIC50 with BRG-1 (Homo sapiens, UniProt P51532)?
Result: 6.30 to 7.00

Request: Record Cn1cc(-c2ccc3cnc(CNC(=O)c4ccc5c(c4)[C@](C)(F)COC5)cc3n2)c(C#N)n1 : what is its pIC50 with BRG-1 (Homo sapiens, UniProt P51532)?
Result: < 6.00

Request: Record C[C@@]1(C#N)COCc2ccc(C(=O)NCc3cc(/C(F)=C(\F)c4ccccc4)ccn3)cc21 : what is its pIC50 with BRG-1 (Homo sapiens, UniProt P51532)?
Result: < 6.00

Request: Record CNC(=O)c1cccc(-c2ccc3cnc(CNC(=O)c4ccc5c(c4)[C@](C)(C#N)COC5)cc3n2)c1F : what is its pIC50 with BRG-1 (Homo sapiens, UniProt P51532)?
Result: 6.00 to 6.30

Request: Record Cn1ncc2c1CCN(c1ccc3cnc(CNC(=O)c4ccc5c(c4)[C@](C)(C#N)COC5)cc3n1)C2 : what is its pIC50 with BRG-1 (Homo sapiens, UniProt P51532)?
Result: 6.00 to 6.30

###

// values below are reported IC50
- TARGET: BRG-1 (Homo sapiens, UniProt P51532)
- ASSAY_DETAILS: ATPase catalytic activity assay (ADP-Glo), BRG-1

Answered cases to consult:
Request: Record COC(=O)c1cccc(/C=C/c2ccnc(CNC(=O)c3ccc4c(c3)[C@](C)(C#N)COC4)c2)c1 : what is its IC50 with BRG-1 (Homo sapiens, UniProt P51532)?
Result: 100 to 500 nM

Request: Record C[C@@]1(C#N)COCc2ccc(C(=O)NCc3cc4nc(C5CC5)ccc4cn3)cc21 : what is its IC50 with BRG-1 (Homo sapiens, UniProt P51532)?
Result: > 1000 nM

Request: Record C[C@@]1(C#N)COCc2ccc(C(=O)NCc3cc(OCC4CCOCC4)ccn3)cc21 : what is its IC50 with BRG-1 (Homo sapiens, UniProt P51532)?
Result: > 1000 nM

Now consider a different compound.
Request: Record C[C@@H]1CN(c2cccc(-c3ccc4[nH]c(CNC(=O)c5ccc6c(c5)[C@](C)(CO)CC6)nc4c3)c2)C[C@H](C)O1 : what is its IC50 with BRG-1 (Homo sapiens, UniProt P51532)?
Result: 500 to 1000 nM

###

- TARGET: BRM (Homo sapiens, UniProt P51531)
- Sequence (P51531 whole entry): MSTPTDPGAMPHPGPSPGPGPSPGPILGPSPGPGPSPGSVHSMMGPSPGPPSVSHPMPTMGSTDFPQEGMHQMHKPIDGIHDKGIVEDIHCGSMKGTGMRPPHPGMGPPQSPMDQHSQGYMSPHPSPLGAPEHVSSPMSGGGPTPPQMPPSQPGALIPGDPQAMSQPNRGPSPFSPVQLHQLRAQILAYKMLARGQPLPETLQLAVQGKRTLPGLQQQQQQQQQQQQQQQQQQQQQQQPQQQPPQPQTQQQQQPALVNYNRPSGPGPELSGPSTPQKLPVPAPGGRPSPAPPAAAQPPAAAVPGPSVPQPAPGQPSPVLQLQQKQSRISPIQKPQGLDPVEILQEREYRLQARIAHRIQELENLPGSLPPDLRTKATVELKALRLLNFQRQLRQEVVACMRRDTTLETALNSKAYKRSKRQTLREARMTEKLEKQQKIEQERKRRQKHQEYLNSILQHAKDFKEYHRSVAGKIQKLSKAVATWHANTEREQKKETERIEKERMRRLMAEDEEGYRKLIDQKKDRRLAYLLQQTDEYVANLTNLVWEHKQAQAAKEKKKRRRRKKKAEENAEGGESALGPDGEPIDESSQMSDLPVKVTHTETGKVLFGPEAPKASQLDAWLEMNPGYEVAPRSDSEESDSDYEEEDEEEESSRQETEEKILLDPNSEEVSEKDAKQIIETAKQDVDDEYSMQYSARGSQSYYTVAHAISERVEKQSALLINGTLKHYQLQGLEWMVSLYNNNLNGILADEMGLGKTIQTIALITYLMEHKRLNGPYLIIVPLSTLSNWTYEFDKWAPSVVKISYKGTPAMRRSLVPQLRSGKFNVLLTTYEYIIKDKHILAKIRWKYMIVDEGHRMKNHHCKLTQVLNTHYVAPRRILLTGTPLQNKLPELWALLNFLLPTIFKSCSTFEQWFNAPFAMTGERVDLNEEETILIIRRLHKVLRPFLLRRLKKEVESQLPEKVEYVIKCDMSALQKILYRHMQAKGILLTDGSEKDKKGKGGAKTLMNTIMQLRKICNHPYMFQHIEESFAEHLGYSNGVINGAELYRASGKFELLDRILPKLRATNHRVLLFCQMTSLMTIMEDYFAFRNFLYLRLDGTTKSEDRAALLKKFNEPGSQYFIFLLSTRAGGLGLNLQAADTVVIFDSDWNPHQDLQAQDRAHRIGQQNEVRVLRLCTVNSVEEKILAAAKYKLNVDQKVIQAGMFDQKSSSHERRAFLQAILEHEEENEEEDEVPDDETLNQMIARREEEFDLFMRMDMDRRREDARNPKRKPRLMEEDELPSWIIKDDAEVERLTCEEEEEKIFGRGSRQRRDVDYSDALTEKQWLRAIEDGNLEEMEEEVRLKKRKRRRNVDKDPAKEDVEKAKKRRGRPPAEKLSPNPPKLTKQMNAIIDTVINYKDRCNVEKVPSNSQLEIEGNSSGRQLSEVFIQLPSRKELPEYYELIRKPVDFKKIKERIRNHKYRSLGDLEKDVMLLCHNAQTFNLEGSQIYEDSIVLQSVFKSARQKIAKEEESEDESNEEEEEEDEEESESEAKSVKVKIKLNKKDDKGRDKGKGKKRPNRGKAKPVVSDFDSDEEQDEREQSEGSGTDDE
- ASSAY_DETAILS: ATPase catalytic activity assay (ADP-Glo), BRM
- SETUP_CONDITIONS: BRM ATPase: IC50 (uM), 30 nM BRM, 400 μM ATP
PROPERTY_LABEL: IC50

Answered cases to consult:
Request: Please give the measured IC50 for this molecule: COc1cc(-c2ccc3cnc(CNC(=O)c4ccc5c(c4)[C@](C)(C#N)COC5)cc3n2)nc(N2CCC2)n1 [Compound 442]
Result: < 0.1 µM

Request: Please give the measured IC50 for this molecule: C[C@H](NC(=O)c1ccc2c(c1)[C@](C)(C#N)COC2)c1cc2nc(-c3ccccc3)ccc2cn1 [Compound 87]
Result: 0.5 to 1 µM

More entries:
Request: Please give the measured IC50 for this molecule: C[C@@]1(C#N)COc2ccc(C(=O)NCc3cc4nc(-c5ccccc5)sc4cn3)cc21 [Compound 117]
Result: > 1 µM

Request: Please give the measured IC50 for this molecule: C[C@@]1(C#N)COCc2ccc(C(=O)NCc3cc4nc(-c5ccccn5)ccc4cn3)cc21 [Compound 102]
Result: 0.1 to 0.5 µM

Request: Please give the measured IC50 for this molecule: C[C@@]1(C#N)COCc2ccc(C(=O)NCc3cc4nc(N5CCCN(C6CCC6)C5=O)ccc4cn3)cc21 [Compound 350]
Result: 0.1 to 0.5 µM

Request: Please give the measured IC50 for this molecule: Cn1ccc2c(-c3ccc4cnc(CNC(=O)c5ccc6c(c5)[C@](C)(C#N)COC6)cc4n3)cccc21 [Compound 179]
Result: < 0.1 µM

Request: Please give the measured IC50 for this molecule: CN(C)c1cccc(-c2ccc3cnc(CNC(=O)c4cnc5c(c4)[C@](F)(C(F)F)COC5)cc3n2)n1 [Compound 224]
Result: < 0.1 µM

Source: patent US12441726B2
